Where do these numbers come from? They come from ChEMBL document CHEMBL1136309.

# Target Entity: Human immunodeficiency virus type 1 protease (Human immunodeficiency virus 1)
# Experiment Summary: Inhibitory activity against HIV protease at a compound concentration of 0.5 nM in MT-4 cells
# Assay type: cell-based
# Condition Label: MT4
Would you mind classing the entries by inhibition? Ranges: lower = under 60%, middle = from 60% up to 80%, upper = 80% and over

# example entries with known answers
Molecule: CCOC(=O)c1cc(C)c(OCC(=O)N[C@@H](Cc2ccccc2)C[C@H](O)[C@H](Cc2ccccc2)NC(=O)O[C@H]2COC3OCCC32)c(C)c1 (some centres undefined)
Assigned Class: upper

Molecule: Cc1cc(F)cc(C)c1OCC(=O)N[C@@H](Cc1ccccc1)C[C@H](O)[C@H](Cc1ccccc1)NC(=O)O[C@H]1COC2OCCC21 (some centres undefined)
Assigned Class: middle

Lab note: sort Cc1ccnc(C)c1OCC(=O)N[C@@H](Cc1ccccc1)C[C@H](O)[C@H](Cc1ccccc1)NC(=O)O[C@H]1COC2OCCC21 (some centres undefined) into the matching inhibition band. lower

Lab note: sort Cc1cc2[nH]c(O)nc2c(C)c1OCC(=O)N[C@@H](Cc1ccccc1)C[C@H](O)[C@H](Cc1ccccc1)NC(=O)O[C@H]1COC2OCCC21 (some centres undefined) into the matching inhibition band. upper

Lab note: sort Cc1cc(N2COCC2=O)cc(C)c1OCC(=O)N[C@@H](Cc1ccccc1)C[C@H](O)[C@H](Cc1ccccc1)NC(=O)O[C@H]1COC2OCCC21 (some centres undefined) into the matching inhibition band. middle
